targetOrSystem: Cytochrome P450 2D6 (Homo sapiens) (UniProt P10635)
Sequence (P10635 whole entry, looked up): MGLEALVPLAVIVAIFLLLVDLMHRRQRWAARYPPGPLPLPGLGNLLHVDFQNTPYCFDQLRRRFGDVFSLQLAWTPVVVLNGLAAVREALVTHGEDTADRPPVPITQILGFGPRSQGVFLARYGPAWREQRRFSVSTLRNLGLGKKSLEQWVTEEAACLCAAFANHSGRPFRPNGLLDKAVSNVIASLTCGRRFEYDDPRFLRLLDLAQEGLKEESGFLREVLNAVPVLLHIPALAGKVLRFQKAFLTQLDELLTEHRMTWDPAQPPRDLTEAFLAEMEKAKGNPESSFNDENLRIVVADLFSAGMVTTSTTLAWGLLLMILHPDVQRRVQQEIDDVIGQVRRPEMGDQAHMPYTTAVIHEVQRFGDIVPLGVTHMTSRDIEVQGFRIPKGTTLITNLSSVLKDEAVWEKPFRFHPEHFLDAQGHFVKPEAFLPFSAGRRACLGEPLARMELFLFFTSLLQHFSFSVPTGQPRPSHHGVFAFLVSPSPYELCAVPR
assayInfo: Cytochrome P450 Family 2 Subfamily D Member 6 (CYP2D6) small molecule antagonists: luciferase reporter qHTS assay (AID 1671196); also: nearly all actives have a fitted effect of over 50% in size
measurementSetup: P450-Glo CYP2D6 enzyme assay, luciferin luminescence, 1 h; series mostly up to 115 µM
Records with an inconclusive call do not appear. The source made the active and inactive calls. Calls follow the shape of the dose curve; as a rule, active = well fitted inhibition curve with a large enough effect in the repeat runs; inconclusive = weak or mixed curves; inactive = no such curve, though single readings can be large or run the other way.
I would appreciate it if you answered using one of these outcomes: TRUE (active), FALSE (inactive)

// known answers, use as guide
CCN1CCC[C@H]1CNC(=O)c1cc(S(N)(=O)=O)ccc1OC = TRUE
CC1(C)C(O)C(C)(C)C1O (configuration not stated) = FALSE
Cc1cc(O)cc2c1O[C@](C)(CCC[C@H](C)CCC[C@H](C)CCCC(C)C)CC2 = FALSE
CN1CC(=O)NC1=N = FALSE
CC(C(=O)O)c1ccc(CC2CCCC2=O)cc1 (configuration not stated) = FALSE

Task: Answer briefly: the call reported for COC(C)(C)CCCC(C)CC=O (configuration not stated) in this assay.
Output: FALSE

Task: Answer briefly: the call reported for `C1OCOCO1` in this assay.
Output: FALSE

Task: Answer briefly: the call reported for `O=C[C@H](O)[C@@H](O)[C@H](O)[C@H](O)CO` in this assay.
Output: FALSE

Task: Answer briefly: the call reported for `CN1CCN(c2cc3c(cc2F)c(=O)c(C(=O)O)cn3-c2ccc(F)cc2)CC1` in this assay.
Output: FALSE

Task: Answer briefly: the call reported for `CC(C)CNCC(C)C` in this assay.
Output: FALSE

Task: Answer briefly: the call reported for `NC(=O)Nc1ccccc1` in this assay.
Output: FALSE

Task: Answer briefly: the call reported for `C=C1CC[C@H]2C[C@@H]1C2(C)C` in this assay.
Output: FALSE

Task: Answer briefly: the call reported for `CC(C)(C)NCCNC(C)(C)C` in this assay.
Output: FALSE

* * *

assayInfo: A CellTox Green Cytotoxicity Assay to monitor cytotoxicity in HepG2 cells - 24 hour (AID 1224878); also: % is scaled to controls: 0 for no effect and ±100 for the full control effect; nearly all actives have a fitted effect of over 45% in size
measurementSetup: CellTox Green fluorescence; series mostly up to 76.8 µM
Excerpt: National Center for Advancing Translational Sciences [NCATS] NIH Chemical Genomics Center [NCGC] U.S. Environmental Protection Agency [EPA] National Institutes of Environmental Health Sciences [NIEHS] National Toxicology Program [NTP] Cell-based models are critical for drug discovery. […] Viable cells produce no appreciable increases in fluorescence. Therefore, the fluorescence signal produced by the binding interaction with dead cell DNA is proportional to cytotoxicity. […]
Records with an inconclusive call do not appear. Activity calls are given as the source filed them. Calls come from the whole dose curve; as a rule, active = well fitted activation curve with a large enough effect in the repeat runs; inconclusive = weak or mixed curves; inactive = flat fitted curve, though single readings scatter.
assayEndpoint: cytotoxicity

Reference set (5 entries):
CC(=O)CC(C)C = inactive
NC(=O)c1ccc(N)cc1 = inactive
CCOc1ccc(C(=O)OCCN(CC)CC)cc1 = inactive
O=C(O)CCCl = inactive
Oc1ccc(C2CNCCc3c2cc(O)c(O)c3Cl)cc1 (stereo not given) = inactive

Could you report cytotoxicity for every entry in the following list?
1. COC(=O)CCSCCC(=O)OC
2. CC(C)(CC(=O)O)C(=O)O
3. CC(=O)Nc1c(I)cc(I)c(C(=O)O)c1I
4. OC[C@]1(O)OC[C@@H](O)[C@H](O)[C@@H]1O
5. C=COCC1CCC(CO)CC1 (stereo not given)
6. CCCCCCCCCCCCN(CCCCCCCCCCCC)CCCCCCCCCCCC
7. OCCCC1CCCCC1

Output:
1. inactive
2. inactive
3. inactive
4. inactive
5. inactive
6. inactive
7. inactive

Could you report cytotoxicity for every entry in the following list?
1. NC(CSCC(=O)O)C(=O)O (stereo not given)
2. CCCCCCCCCCCCCC=O
3. CN1N=C(C(N)=O)CCC1=O

Output:
1. inactive
2. 1.56% [at 6.97 µM] (inactive)
3. inactive
